Entries annotated with measured Bliss interaction score
tested on: S. aureus DSM 20231; test: Bliss interaction score (quartile over a dose matrix) (fitness difference); higher = more antagonism (negative = synergy); conditions: main component drawn;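 note: first quartile when negative (synergy) and third quartile when positive (antagonism)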

Molecule: CC[C@H](C)[C@H](N)C1=N[C@H](C(=O)N[C@@H](CC(C)C)C(=O)N[C@H](CCC(=O)O)C(=O)N[C@H](C(=O)N[C@H]2CCCCNC(=O)[C@H](CC(N)=O)NC(=O)[C@@H](CC(=O)O)NC(=O)[C@H](Cc3cnc[nH]3)NC(=O)[C@@H](Cc3ccccc3)NC(=O)[C@H]([C@@H](C)CC)NC(=O)[C@@H](CCCN)NC2=O)[C@@H](C)CC)CS1 [Bacitracin] + O=C(N[C@H](CO)[C@H](O)c1ccc([N+](=O)[O-])cc1)C(Cl)Cl [Chloramphenicol]
Bliss interaction score: -0.0262
//
Molecule: CC[C@H](C)[C@H](N)C1=N[C@H](C(=O)N[C@@H](CC(C)C)C(=O)N[C@H](CCC(=O)O)C(=O)N[C@H](C(=O)N[C@H]2CCCCNC(=O)[C@H](CC(N)=O)NC(=O)[C@@H](CC(=O)O)NC(=O)[C@H](Cc3cnc[nH]3)NC(=O)[C@@H](Cc3ccccc3)NC(=O)[C@H]([C@@H](C)CC)NC(=O)[C@@H](CCCN)NC2=O)[C@@H](C)CC)CS1 [Bacitracin] + CN(C)c1cc(NC(=O)CNC(C)(C)C)c(O)c2c1C[C@H]1C[C@H]3[C@H](N(C)C)C(O)=C(C(N)=O)C(=O)[C@@]3(O)C(O)=C1C2=O [Tigecycline]
Bliss interaction score: 0.0393
